Measured values drawn from ChEMBL document CHEMBL1148694 for this set.

- assay-name: Induction of differentiation in human HL60-G cells assessed as CD11b expression relative to 1-alpha,25-dihydroxyvitamin D3
- Assay type: functional
observed-property: Activity

Please review the following examples before continuing.
C=C1/C(=C\C=C2/CCC[C@@]3(C)C2CC[C@@H]3[C@]2(CC#CC(O)(C(F)(F)F)C(F)(F)F)C[C@H]2CCC(C)(C)O)C[C@@H](O)C[C@@H]1O (stereo not given in full) | 2.31
CC(C)(O)CC[C@@H]1C[C@@]1(CC#CC(O)(C(F)(F)F)C(F)(F)F)[C@H]1CCC2/C(=C/C=C3C[C@@H](O)C[C@H](O)C3)CCC[C@@]21C (stereo not given in full) | 1.03
C=C1/C(=C\C=C2/CCC[C@@]3(C)C2CC[C@@H]3[C@]2(CCCC(C)(C)O)C[C@H]2CCC(C)(C)O)C[C@@H](O)C[C@H]1F (stereo not given in full) | <0.002
C=C1/C(=C\C=C2/CCC[C@@]3(C)C2CC[C@@H]3[C@]2(CCCC(C)(C)O)C[C@H]2CCC(C)(C)O)C[C@@H](O)C[C@@H]1O (stereo not given in full) | 0.06

# compound CC(C)(O)CCC[C@@]1([C@H]2CCC3/C(=C/C=C4C[C@@H](O)C[C@H](O)C4)CCC[C@@]32C)C[C@H]1CCC(C)(C)O (stereo not given in full) ; its Activity = 0.01
